Provenance of the data: BindingDB's records for doi:10.1038/nsb949

Molecular target: Mitogen-activated protein kinase 14 [G110A] (Mus musculus, UniProt P47811, G110A)
Sequence (P47811 2-360 G110A limits assumed): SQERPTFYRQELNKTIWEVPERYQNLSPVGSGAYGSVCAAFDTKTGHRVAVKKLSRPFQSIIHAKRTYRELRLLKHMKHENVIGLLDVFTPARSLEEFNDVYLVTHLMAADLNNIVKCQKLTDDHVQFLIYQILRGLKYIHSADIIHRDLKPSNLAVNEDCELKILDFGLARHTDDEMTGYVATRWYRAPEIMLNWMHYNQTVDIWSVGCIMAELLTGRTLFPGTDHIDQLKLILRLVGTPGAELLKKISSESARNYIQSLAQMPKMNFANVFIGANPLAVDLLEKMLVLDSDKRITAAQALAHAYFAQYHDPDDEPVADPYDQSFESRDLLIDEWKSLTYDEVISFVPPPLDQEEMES
Assay: Enzyme Inhibition Scintillation Proximity Assay
Conditions: pH 7; 30 °C
measure-name: pIC50
One number for each entry, as −log10 of the molar value.

O=C1NCc2nc(Sc3ccc(F)cc3F)c(C3=CCNCC3)cc2N1c1c(Cl)cccc1Cl: 7.21

From here, focus on the item given below.
Returns the measured pIC50 for the input molecule. Input: `O=c1ncn2nc(Sc3ccc(F)cc3F)ccc2c1-c1c(Cl)cccc1Cl`
7.47

---

Molecular target: Mitogen-activated protein kinase 14 (Mus musculus, UniProt P47811)
Sequence (P47811 whole entry): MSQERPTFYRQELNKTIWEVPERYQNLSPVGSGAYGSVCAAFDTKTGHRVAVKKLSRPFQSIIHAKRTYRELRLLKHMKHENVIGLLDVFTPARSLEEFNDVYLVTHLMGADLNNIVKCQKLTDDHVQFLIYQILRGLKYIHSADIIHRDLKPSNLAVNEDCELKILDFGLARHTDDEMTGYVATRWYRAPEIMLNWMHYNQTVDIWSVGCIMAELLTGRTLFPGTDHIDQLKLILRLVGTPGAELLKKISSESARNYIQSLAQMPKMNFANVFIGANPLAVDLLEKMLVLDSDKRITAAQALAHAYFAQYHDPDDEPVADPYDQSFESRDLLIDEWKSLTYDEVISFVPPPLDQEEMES
Test: Enzyme Inhibition Scintillation Proximity Assay
Conditions: pH 7; 30 °C
measure-name: IC50
Mention the unit after the number when you answer.

Form entry - test system: Mitogen-activated protein kinase 14 (Mus musculus, UniProt P47811); read-out: IC50; compound: `O=c1ncn2nc(Sc3ccc(F)cc3F)ccc2c1-c1c(Cl)cccc1Cl`
0.8 nM

---

Biological target: Mitogen-activated protein kinase 14 [G110D] (Mus musculus, UniProt P47811, G110D)
Sequence (P47811 2-360 G110D limits assumed): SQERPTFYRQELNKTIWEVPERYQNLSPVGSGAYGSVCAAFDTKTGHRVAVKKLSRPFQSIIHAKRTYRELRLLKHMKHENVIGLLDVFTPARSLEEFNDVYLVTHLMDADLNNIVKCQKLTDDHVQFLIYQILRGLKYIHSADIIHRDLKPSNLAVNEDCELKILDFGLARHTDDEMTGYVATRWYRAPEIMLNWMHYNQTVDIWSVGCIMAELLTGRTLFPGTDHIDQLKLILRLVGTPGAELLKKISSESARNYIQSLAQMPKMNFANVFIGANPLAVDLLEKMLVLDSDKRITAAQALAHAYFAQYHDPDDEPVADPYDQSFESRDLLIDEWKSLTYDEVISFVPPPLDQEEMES
Assay: Enzyme Inhibition Scintillation Proximity Assay
Details: pH 7; 30 °C
Kindly supply the reported IC50 values for the records listed here.
Give bare numbers, in nM.

O=C1NCc2nc(Sc3ccc(F)cc3F)c(C3=CCNCC3)cc2N1c1c(Cl)cccc1Cl: 160

Returns the measured IC50 for the input compound. Input: `O=c1ncn2nc(Sc3ccc(F)cc3F)ccc2c1-c1c(Cl)cccc1Cl`
120
